- System tested: Adenosine receptor A3 (Homo sapiens, UniProt P0DMS8)
- Sequence (P0DMS8 whole entry): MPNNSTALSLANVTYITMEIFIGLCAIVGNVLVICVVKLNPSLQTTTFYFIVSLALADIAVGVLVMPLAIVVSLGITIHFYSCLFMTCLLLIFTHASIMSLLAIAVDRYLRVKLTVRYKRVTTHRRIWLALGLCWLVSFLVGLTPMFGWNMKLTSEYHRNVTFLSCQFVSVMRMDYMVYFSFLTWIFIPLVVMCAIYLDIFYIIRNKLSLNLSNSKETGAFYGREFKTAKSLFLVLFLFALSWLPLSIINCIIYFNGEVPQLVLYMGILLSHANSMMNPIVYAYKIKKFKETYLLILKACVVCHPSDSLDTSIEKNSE
Listing of Ki toward Adenosine receptor A3 (Homo sapiens, UniProt P0DMS8), each taken from a published source.
// note: answer is a bare numeric in nM

Molecule	Ki / nM
CCCn1c(=O)c2[nH]c(-c3cnn(Cc4ccccc4)c3)nc2n(CCC)c1=O	170
COc1cccc(Cn2c(=O)n(CC3CC3)c(=O)c3c2nc2cc(OC)ccn23)c1	0.38
O=C(NCC1CC1)[C@H]1S[C@@H](n2cnc3c(NCc4cccc(I)c4)ncnc32)[C@H](O)[C@@H]1O	2.16
CCCOC(=O)c1c(-c2ccccc2F)nc(CC)c(C(=O)SCC)c1CCC	23
Nc1nc(C(=O)NCc2ccccn2)cc(-c2ccco2)n1	1390
CNc1nc(C#Cc2ccc(Cl)s2)nc2c1ncn2[C@H]1[C@H](O)[C@H](O)[C@]2(C(=O)OC(C)C)C[C@H]12	42.9
Cn1cc2c(nc(NC(=O)Nc3cc[n+]([O-])cc3)n3nc(-c4ccco4)nc23)n1	21

For the molecule shown here, CCCCCC(C)Nc1nc2nn(C)cc2c2nc(-c3ccco3)nn12 (centres undefined) , give the reported Ki.
8.62

----------
- System tested: Adenosine receptor A3 (Homo sapiens)
- Sequence (P0DMS8 whole entry): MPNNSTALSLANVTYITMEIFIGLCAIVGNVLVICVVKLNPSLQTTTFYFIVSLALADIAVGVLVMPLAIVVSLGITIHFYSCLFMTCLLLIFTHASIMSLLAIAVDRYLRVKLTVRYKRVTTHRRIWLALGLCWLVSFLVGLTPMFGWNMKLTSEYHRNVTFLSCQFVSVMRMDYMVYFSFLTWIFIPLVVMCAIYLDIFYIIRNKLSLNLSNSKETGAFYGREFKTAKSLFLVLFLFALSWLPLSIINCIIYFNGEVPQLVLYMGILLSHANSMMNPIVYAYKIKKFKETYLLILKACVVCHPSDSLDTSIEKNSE
The entries below pair molecules with Ki values for Adenosine receptor A3 (Homo sapiens), as found in several publications.
Please reply with the bare figure in nM and do not write the unit itself.

Molecule	Ki (nM)
COc1ccc(CCNc2nc(N)c3nc(-c4ccccc4)sc3n2)cc1	3530
CNC(=O)[C@H]1O[C@@H](n2cnc3c(NCc4ccccc4C)nc(Cl)nc32)[C@H](O)[C@@H]1O	2.19
Nc1nc(-c2ccccc2)nc2sc(-c3ccccc3)nc12	84

Which Ki value belongs to `CNC(=O)[C@H]1O[C@@H](n2cnc3c(NCc4cc(Cl)ccc4OCC(=O)O)ncnc32)[C@H](O)[C@@H]1N` ?
130

Give its Ki value. Item: `COc1ccc(N2CCOCC2)c2sc(NC(=O)C(C)(C)Oc3ccc(F)c(F)c3)nc12`
500

For CCNC(=O)c1cnn(-c2nc(NC)c3ncn(C4O[C@H](CO)[C@@H](O)[C@H]4O)c3n2)c1 (stereo not given in full) , what is its reported Ki?
49

Look up Ki for this molecule: `Cn1cc2c(nc(NC(=O)COc3ccc(Cl)cc3)n3nc(-c4ccco4)nc23)n1`
223

Bench note: what Ki did `COc1cccc(CNC(=O)c2cc(-c3ccco3)nc(N)n2)c1` show?
1100

Any idea what Ki was measured for `COc1ccc(-c2nc3n(n2)-c2cc(C)ccc2N(C(=O)OCc2ccccc2)C3)cc1` ?
231

Recorded Ki for `Cc1cc(F)cc(-c2nc(NC(=O)c3cccnc3)sc2-c2ccncc2)c1` , please?
69.2

Requested read-out: Ki. Entry: `CCOC(=O)CC[C@H](Nc1nc2nn(C)cc2c2nc(-c3ccco3)nn12)C(=O)OCC`
7.55

Any idea what Ki was measured for `O=c1[nH]c2ccccc2c2cn(-c3ccc(Cl)cc3)nc12` ?
2.9

Looking for the measured Ki of `O=C(Nc1cccc(Cl)c1)Nc1nc(-c2ccccc2)nc2nn(Cc3ccccc3)cc12` , can you help?
121

Looking for the measured Ki of `CNc1nc2nn(C)cc2c2nc(-c3ccco3)nn12` , can you help?
63.4

Looking for the measured Ki of `COc1ccc(-n2nc3c(N)nc(C)cn3c2=O)cc1` , can you help?
255

Given the entry `CCOC(=O)c1cnc(N2CCCC2)n2nc(-c3ccco3)nc12` , report its measured Ki.
836

Reported Ki for `Nc1nc(Cl)nc2c1ncn2[C@@H]1O[C@H](CO)[C@@H](O)[C@H]1O` : what is it?
650

Requested field: Ki. Item: `COc1ccccc1-n1nc2c(N)nc(-c3ccccc3)cn2c1=O`
392

What Ki value was documented for this molecule, `CN(C)C(=O)[C@H]1O[C@@H](n2cnc3c(NCc4cccc(I)c4)nc(N(C)C)nc32)[C@H](O)[C@@H]1O` ?
315

----------
Recorded Ki for compounds tested on UniProtKB P0DMS8, drawn from a number of studies.
Write the answer as a number in nM, unit excluded.

Solved entries:
Compound	System tested	Measurement units	Quantitative readout
CCCn1c(=O)c2[nH]c(-c3ccc(S(=O)(=O)O)cc3)nc2n(CCC)c1=O	UniProtKB P0DMS8	nM	183
Cn1cc2c(nc(NCCc3ccccc3)n3nc(-c4ccco4)nc23)n1	UniProtKB P0DMS8	nM	52.8
CCCn1c(=O)c2[nH]c(-c3cnn(Cc4noc(-c5ccc(C#N)cc5)n4)c3)nc2n(CCC)c1=O	UniProtKB P0DMS8	nM	640
c1nc2c(NC3CCCCC3)nc(Nc3ccc(N4CCCCC4)cc3)nc2[nH]1	UniProtKB P0DMS8	nM	1570
O=C(Cc1ccc(F)cc1)Nc1nc2nn(CCCc3ccccc3)cc2c2nc(-c3ccco3)nn12	UniProtKB P0DMS8	nM	58.5

// fetch UniProtKB P0DMS8 Ki for `O=c1c2c(nc3ccccn32)n(Cc2ccccc2)c(=O)n1CC1CC1`
4.2

Ki of `CCOC(=O)c1cnc(NC2CCCCC2)n2nc(-c3ccco3)nc12` on UniProtKB P0DMS8?
131

Lab request: please report Ki under test system UniProtKB P0DMS8 for `CC(C)(C)Cn1cc2c(C(N)=O)nc(N)nc2n1`
19700

Requested read-out Ki, target or system UniProtKB P0DMS8, entry CCC1CN2C(=O)N(Cc3ccccc3)c3nc(-c4cc(OC)no4)[nH]c3C2=N1 (racemic)
2.71

UniProtKB P0DMS8 / Ki / `COc1ccc(NC(=O)Nc2nc3cnn(CCc4ccccc4)c3c3nc(-c4ccco4)nn23)cc1` : value?
208

----------
pKi for Adenosine receptor A3 (Homo sapiens), merged from several publications.
# pKi = -log10(concentration in molar units)

Examples with their reported pKi follow.
Molecule	System tested	Quantitative readout
Cc1ccc(-c2nc(N)c3nn(Cc4cccc(O)c4)cc3n2)o1	Adenosine receptor A3 (Homo sapiens)	6.65
CNc1ncnc2c1ncn2[C@@H]1S[C@H](C(=O)NCC2CC2)[C@@H](O)[C@H]1O	Adenosine receptor A3 (Homo sapiens)	8.87
COc1ccc(-n2nc3c(N)nc4c(N)cccc4n3c2=O)cc1	Adenosine receptor A3 (Homo sapiens)	7.66
COc1ccc(NC(=O)Nc2nc3nn(Cc4cccc5ccccc45)cc3c3nc(-c4ccco4)nn23)cc1	Adenosine receptor A3 (Homo sapiens)	7.80
COc1cc(CCNC2=NC(C#Cc3ccc(Cl)s3)=NC3=NC=NC32)ccc1O (stereo not given)	Adenosine receptor A3 (Homo sapiens)	5.17
Cc1ccc(-c2nc3cn(-c4ccccc4)nc3c(=O)[nH]2)o1	Adenosine receptor A3 (Homo sapiens)	6.06

pKi lookup needed for CCOC(=O)C(CC(C)C)Nc1nc2nn(C)cc2c2nc(-c3ccco3)nn12 (racemic) , thanks.
9.30

----------
// compounds with reported Ki on UniProtKB P0DMS8, multi-publication
Ki less than 80 nM is MET; Ki greater than or equal to 80 nM is NOT MET.

# example entries with known answers
Compound	Label
CCCOC(=O)c1c(-c2ccccc2)nc(CC)c(C(=O)SCC)c1CCCF	MET
CCCn1c(=O)c2[nH]c(-c3cc(C)n(CC(=O)Nc4ccc(OC)cc4)n3)nc2n(CCC)c1=O	NOT MET
OC[C@H]1O[C@@H](n2cnc3c(NCc4cccc(Cl)c4)ncnc32)[C@H](O)[C@@H]1O	MET
CC(=O)Nc1ccc(-c2ccncc2)c(-c2cccc(F)c2)n1	NOT MET
CCOC(=O)c1cnc(NCc2ccc(C)cc2)n2nc(-c3ccco3)nc12	MET

Say whether its Ki is strictly beneath 80 nM. Entry: `CC(C)(C)OC(=O)NCCCCC(=O)Nc1nc2ccc(Cl)cc2c2nc(-c3ccco3)nn12`
MET
